System: L6
protocol-details: In vitro cytotoxicity aganist rat skeletal myoblasts (L-6 cells) after 72 hours
Assay type: functional, cell-based
test-context: L6, 72 h
parameter: pIC50
Lab note — pIC50 values are minus log10 of concentrations in M.

Worked examples, 3 compounds total:
O=c1ccn(C2CC(F)C(CO[Si](c3ccccc3)(c3ccccc3)c3ccccc3)O2)c(=O)[nH]1 (stereo unspecified); 4.07
NS(=O)(=O)NC(=O)OCC1C=CC(n2ccc(=O)[nH]c2=O)O1 (stereo unspecified); 3.58
CC(C)(C)[Si](OCC1C=CC(n2ccc(=O)[nH]c2=O)O1)(c1ccccc1)c1ccccc1 (stereo unspecified); 4.17

Alright, here's another compound for you.
Simply: `CC(C)(C)[Si](OC[C@H]1O[C@@H](n2ccc(=O)[nH]c2=O)C[C@@H]1O)(c1ccccc1)c1ccccc1` , L6, pIC50 = 4.64

---

System: L6
protocol-details: In vitro cytotoxicity aganist rat skeletal myoblasts (L-6 cells) after 72 hours
Assay type: functional, cell-based
test-context: L6, 72 h
parameter: IC50 (µM)
Provide the reading as a plain figure in µM.

CC(C)(C)[Si](C)(C)OC1CC(n2ccc(=O)[nH]c2=O)OC1CNC(c1ccccc1)(c1ccccc1)c1ccccc1 (centres undefined); 7.8

The value of IC50 measured for the compound O=c1ccn(C2C=CC(CO[Si](c3ccccc3)(c3ccccc3)c3ccccc3)O2)c(=O)[nH]1 (centres undefined) turned out to be 85

The value of IC50 measured for the compound CC(C)(C)[Si](OCC1OC(n2ccc(=O)[nH]c2=O)CC1F)(c1ccccc1)c1ccccc1 (centres undefined) turned out to be 16

Lab book: IC50 of `CCOP(=O)(OCC)OC[C@H]1O[C@@H](n2ccc(=O)[nH]c2=O)C[C@@H]1O[Si](C)(C)C(C)(C)C` noted as 108

Reported IC50 for `CC(C)[Si](OC[C@H]1O[C@@H](n2ccc(=O)[nH]c2=O)C[C@@H]1O)(C(C)C)C(C)C` was 25

Quick note, IC50 for `CC(=O)OC[C@H]1O[C@@H](n2ccc(=O)[nH]c2=O)C[C@@H]1O` landed at 64

For O=c1ccn(C2CC(O)C(CNC(c3ccccc3)(c3ccccc3)c3ccccc3)O2)c(=O)[nH]1 (centres undefined) the compound record lists IC50 as 44

The compound identified as CC(C)(C)[Si](C)(C)OC1CC(n2ccc(=O)[nH]c2=O)OC1CNP(=O)(Oc1ccccc1)Oc1ccccc1 (centres undefined) registered its IC50 at 18

Recorded result, O=c1ccn(C2CC(F)C(CNC(c3ccccc3)(c3ccccc3)c3ccccc3)O2)c(=O)[nH]1 (centres undefined) , IC50: 30

---

target-system: dUTP pyrophosphatase (Plasmodium falciparum 3D7, UniProt Q8II92)
Sequence (Q8II92 whole entry): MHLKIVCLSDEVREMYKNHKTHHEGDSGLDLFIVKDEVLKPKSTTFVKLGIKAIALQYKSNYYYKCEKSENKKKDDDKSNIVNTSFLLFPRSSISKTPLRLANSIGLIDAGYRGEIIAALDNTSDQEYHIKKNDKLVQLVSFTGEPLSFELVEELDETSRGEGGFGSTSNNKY
pKi: −log10 of the molar value.
# pKi >= 4 gives Criterion met, anything below gives Criterion not met

Past entries and their recorded results:
CC(=O)NCC1OC(n2ccc(=O)[nH]c2=O)CC1O (stereo not given); Criterion not met
O=C(NCC1OC(n2ccc(=O)[nH]c2=O)CC1O)c1ccccc1 (stereo not given); Criterion not met

Is it the case that O=c1ccn(C2CC(O)C(CNP(=O)(Oc3ccccc3)Oc3ccccc3)O2)c(=O)[nH]1 (stereo not given) has pKi reaching or exceeding 4? Criterion met

Given CC(C)(C)[Si](C)(C)OC1CC(n2ccc(=O)[nH]c2=O)OC1CNP(=O)(Oc1ccccc1)Oc1ccccc1 (stereo not given) , state whether its pKi is at least 4. Criterion met

---

// reported SI for each item listed
target-system: dUTP pyrophosphatase (Plasmodium falciparum 3D7)
Sequence (whole entry): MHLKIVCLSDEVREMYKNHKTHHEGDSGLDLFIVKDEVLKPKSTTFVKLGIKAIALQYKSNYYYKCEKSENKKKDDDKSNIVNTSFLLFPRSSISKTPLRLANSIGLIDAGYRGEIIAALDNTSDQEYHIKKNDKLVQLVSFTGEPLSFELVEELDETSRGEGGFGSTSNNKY
protocol-details: Selectivity index for Plasmodium falciparum deoxyuridine 5'-triphosphate nucleotidohydrolase defined as (Ki Human)/(Ki Plasmodium falciparum)
// print number alone

In the examples that follow, each entry is paired with its recorded SI.
CC(C)(C)[Si](OCC1OC(n2ccc(=O)[nH]c2=O)CC1F)(c1ccccc1)c1ccccc1 (centres undefined); 9.1
O=c1ccn([C@H]2C[C@H](O)[C@@H](COP(=O)(Oc3ccccc3)Oc3ccccc3)O2)c(=O)[nH]1; 0.6
CCCCCCCCCCCCCCCC(=O)OCC1C=CC(n2ccc(=O)[nH]c2=O)O1 (centres undefined); 1.4

Now for a further compound.
Let me check: `O=c1ccn([C@H]2C[C@H](O)[C@@H](COC(c3ccccc3)(c3ccccc3)c3ccccc3)O2)c(=O)[nH]1` , system dUTP pyrophosphatase (Plasmodium falciparum 3D7), measured SI is 10

---

target-system: UniProt O15826
Sequence (O15826 whole entry): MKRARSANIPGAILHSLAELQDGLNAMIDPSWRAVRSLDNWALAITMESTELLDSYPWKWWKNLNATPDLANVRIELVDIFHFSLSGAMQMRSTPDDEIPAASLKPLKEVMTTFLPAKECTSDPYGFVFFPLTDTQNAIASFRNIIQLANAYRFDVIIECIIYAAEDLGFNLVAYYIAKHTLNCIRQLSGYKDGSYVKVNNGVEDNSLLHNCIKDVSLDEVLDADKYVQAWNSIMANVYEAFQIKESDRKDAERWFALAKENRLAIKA
parameter: Ki

Some solved entries appear below for comparison.
O=c1ccn(C2C=CC(COC(c3ccccc3)(c3ccccc3)c3ccccc3)O2)c(=O)[nH]1 (stereo not drawn); 798 µM
O=C(OC[C@H]1O[C@@H](n2ccc(=O)[nH]c2=O)C[C@@H]1O)c1ccccc1; > 1000 µM
O=c1ccn([C@H]2C[C@H](O)[C@@H](CO[Si](c3ccccc3)(c3ccccc3)c3ccccc3)O2)c(=O)[nH]1; > 1000 µM
CC(C)(C)[Si](C)(C)OC1CC(n2ccc(=O)[nH]c2=O)OC1CNC(c1ccccc1)(c1ccccc1)c1ccccc1 (stereo not drawn); > 1000 µM
CC(C)[Si](OC[C@H]1O[C@@H](n2ccc(=O)[nH]c2=O)C[C@@H]1O)(C(C)C)C(C)C; > 1000 µM
CC(C)(C)[Si](C)(C)O[C@H]1C[C@H](n2ccc(=O)[nH]c2=O)O[C@@H]1CO; 114 µM
O=c1ccn([C@H]2C[C@H](O)[C@@H](COP(=O)(Oc3ccccc3)Oc3ccccc3)O2)c(=O)[nH]1; > 1000 µM

Below: the item to evaluate.
Just so you know, measured Ki for O=c1ccn(C2CC(O)C(CNC(c3ccccc3)(c3ccccc3)c3ccccc3)O2)c(=O)[nH]1 (stereo not drawn) came out at 304 µM

---

Parameter pIC50: see the listing below.
Test system: L6
protocol-details: In vitro cytotoxicity aganist rat skeletal myoblasts (L-6 cells) after 72 hours
Assay type: functional, cell-based
test-context: L6, 72 h
Please keep in mind that pIC50 is minus log10 of the molar concentration; only the number is needed.

CCOP(=O)(OCC)OC[C@H]1O[C@@H](n2ccc(=O)[nH]c2=O)C[C@@H]1O; 3.70
CCOP(=O)(CC(=O)OC[C@H]1O[C@@H](n2ccc(=O)[nH]c2=O)C[C@@H]1O)OCC; 3.77

Let's switch to this compound now.
Observed pIC50, L6, O=c1ccn(C2CC(F)C(COC(c3ccccc3)(c3ccccc3)c3ccccc3)O2)c(=O)[nH]1 (stereo not given) : 4.46

---

Parameter: pKi. Scope: all listed entries.
target-system: dUTP pyrophosphatase (Leishmania major)
Sequence (O15826 whole entry): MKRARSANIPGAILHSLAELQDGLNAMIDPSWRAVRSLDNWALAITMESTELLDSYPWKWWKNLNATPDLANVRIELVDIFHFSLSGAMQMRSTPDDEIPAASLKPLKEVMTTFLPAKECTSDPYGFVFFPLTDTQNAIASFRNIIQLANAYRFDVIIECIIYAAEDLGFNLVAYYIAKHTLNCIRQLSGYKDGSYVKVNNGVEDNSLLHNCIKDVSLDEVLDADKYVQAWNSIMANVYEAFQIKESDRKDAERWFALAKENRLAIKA
pKi: −log10 of the molar value.

Worked set:
CC(C)(C)[Si](C)(C)OCC1C=CC(n2ccc(=O)[nH]c2=O)O1 (stereo not given); < 3.00
O=c1ccn(C2CC(O)C(CNP(=O)(Oc3ccccc3)Oc3ccccc3)O2)c(=O)[nH]1 (stereo not given); < 3.00

So, CCCCCCCCCCCCCCCC(=O)OCC1C=CC(n2ccc(=O)[nH]c2=O)O1 (stereo not given) ? Its pKi was < 3.00

Entry `CC(C)(C)[Si](OC[C@H]1O[C@@H](n2ccc(=O)[nH]c2=O)C[C@@H]1O)(c1ccccc1)c1ccccc1` ; pKi = < 3.00

The molecule listed as `CC(C)(C)[Si](C)(C)O[C@H]1C[C@H](n2ccc(=O)[nH]c2=O)O[C@@H]1COC(c1ccccc1)(c1ccccc1)c1ccccc1` has a reported pKi of 3.34

Entry under test: O=C(NCC1OC(n2ccc(=O)[nH]c2=O)CC1O)C12CC3CC(CC(C3)C1)C2 (stereo not given) . Its pKi was < 3.00

// pKi lookup, molecule = `NS(=O)(=O)NC(=O)OC[C@H]1O[C@@H](n2ccc(=O)[nH]c2=O)C[C@@H]1O` , result: 3.50

For this molecule ( `CCCCC(=O)OC[C@H]1O[C@@H](n2ccc(=O)[nH]c2=O)C[C@@H]1O` ), measured pKi is < 3.00

The molecule listed as O=c1ccn(C2CC(F)C(CNC(c3ccccc3)(c3ccccc3)c3ccccc3)O2)c(=O)[nH]1 (stereo not given) shows pKi equal to < 3.00

pKi reported for this molecule O=c1ccn(C2CC(F)C(CO[Si](c3ccccc3)(c3ccccc3)c3ccccc3)O2)c(=O)[nH]1 (stereo not given) : < 3.00
